# target: rat brain N-type calcium channel subunits (α1B+α2δ+β1b cDNA subunits) (Rattus norvegicus)
# Construct: expressed in transfected cells; host or cells: HEK 293 (human embryonic kidney), stably transfected; alternatively transiently transfected
# procedure.summary: N-type calcium channel block, whole cell patch clamp in HEK 293 cells
# Type: cell-based
# assay.setup: pulse frequency 0.2 Hz (frequency dependent block), holding potential −80 mV to +10 mV, read-out: IC50 @ 0.2 Hz
# Description: N-type calcium channel blocking activity was assayed in human embryonic kidney cells, HEK 293, stably transfected with the rat brain N-type calcium channel subunits (α1B+α2δ+β1b cDNA subunits). […] Whole cell patch clamp experiments were performed using an Axopatch 200B amplifier (Axon Instruments, Burlingame, Calif.) linked to a personal computer equipped with pCLAMP software. […] Data were analyzed using Clampfit (Axon Instruments) and SigmaPlot 4.0 (Jandel Scientific).
pIC50: −log10 of the molar value.
Entries and their measured pIC50 follow.

{"compound": "O=C(C1CC1C(=O)N1CCN(C(c2ccccc2)c2ccccc2)CC1)N1CCN(c2ccccc2F)CC1 (centres unmarked) [Compound 8]", "pIC50": 6.28}
{"compound": "CC1CN(C(=O)C2CC2C(=O)N2CCN(C(c3ccccc3)c3ccccc3)CC2)CC(C)N1 (centres unmarked) [Compound 13]", "pIC50": 6.36}
{"compound": "CN1CCN(C(=O)C2CC2C(=O)N2CCN(C(c3ccccc3)c3ccccc3)CC2)CC1 (centres unmarked) [Compound 3]", "pIC50": 5.82}
{"compound": "O=C(C1CC1C(=O)N1CCN(C(c2ccccc2)c2ccccc2)CC1)N1CCN(C(c2ccccc2)c2ccccc2)CC1 (centres unmarked) [Compound 1]", "pIC50": 6.82}
{"compound": "O=C(Nc1ccccc1)C1CC1C(=O)N1CCN(C(c2ccccc2)c2ccccc2)CC1 (centres unmarked) [Compound 6]", "pIC50": 5.72}
{"compound": "CC(C)N(C(=O)C1CC1C(=O)N1CCN(C(c2ccccc2)c2ccccc2)CC1)C(C)C (centres unmarked) [Compound 14]", "pIC50": 6.07}
{"compound": "CNC1CCN(C(=O)C2CC2C(=O)N2CCN(C(c3ccccc3)c3ccccc3)CC2)CC1 (centres unmarked) [Compound 16]", "pIC50": 5.17}
{"compound": "CC(C)(C)C1CCC(NC(=O)C2CC2C(=O)N2CCN(C(c3ccccc3)c3ccccc3)CC2)CC1 (centres unmarked) [Compound 11]", "pIC50": 7.10}

---

Entries and their measured IC50 follow.
# target: rat brain N-type calcium channel subunits (α1B+α2δ+β1b cDNA subunits) (Rattus norvegicus)
# Construct: expressed in transfected cells; host or cells: HEK 293 (human embryonic kidney), stably transfected; alternatively transiently transfected
# procedure.summary: N-type calcium channel block, whole cell patch clamp in HEK 293 cells
# Assay type: cell-based
# assay.setup: pulse frequency 0.2 Hz (frequency dependent block), holding potential −80 mV to +10 mV, read-out: IC50 @ 0.2 Hz
property: IC50 (nM)

{"molecule": "CC(C)(C)N1CCN(C(=O)C2CC2C(=O)N2CCN(C(c3ccccc3)c3ccccc3)CC2)CC1 (stereo not shown) [Compound 15]", "obs.value": 6860}
{"molecule": "CC1CCC(CN2CCN(C(=O)C3CC3C(=O)N3CCN(C(c4ccccc4)c4ccccc4)CC3)CC2)CC1 (stereo not shown) [Compound 18]", "obs.value": 440}
{"molecule": "COCCN1CCN(C(=O)C2CC2C(=O)N2CCN(C(c3ccccc3)c3ccccc3)CC2)CC1 (stereo not shown) [Compound 7]", "obs.value": 1500}
{"molecule": "CC1CCC(NC(=O)C2CC2C(=O)N2CCN(C(c3ccccc3)c3ccccc3)CC2)CC1 (stereo not shown) [Compound 12]", "obs.value": 120}

---

# target: rat brain N-type calcium channel subunits (α1B+α2δ+β1b cDNA subunits) (Rattus norvegicus, UniProt Q02294)
# Construct: expressed in transfected cells; host or cells: HEK 293 (human embryonic kidney), stably transfected; alternatively transiently transfected
# Sequence (Q02294 whole entry): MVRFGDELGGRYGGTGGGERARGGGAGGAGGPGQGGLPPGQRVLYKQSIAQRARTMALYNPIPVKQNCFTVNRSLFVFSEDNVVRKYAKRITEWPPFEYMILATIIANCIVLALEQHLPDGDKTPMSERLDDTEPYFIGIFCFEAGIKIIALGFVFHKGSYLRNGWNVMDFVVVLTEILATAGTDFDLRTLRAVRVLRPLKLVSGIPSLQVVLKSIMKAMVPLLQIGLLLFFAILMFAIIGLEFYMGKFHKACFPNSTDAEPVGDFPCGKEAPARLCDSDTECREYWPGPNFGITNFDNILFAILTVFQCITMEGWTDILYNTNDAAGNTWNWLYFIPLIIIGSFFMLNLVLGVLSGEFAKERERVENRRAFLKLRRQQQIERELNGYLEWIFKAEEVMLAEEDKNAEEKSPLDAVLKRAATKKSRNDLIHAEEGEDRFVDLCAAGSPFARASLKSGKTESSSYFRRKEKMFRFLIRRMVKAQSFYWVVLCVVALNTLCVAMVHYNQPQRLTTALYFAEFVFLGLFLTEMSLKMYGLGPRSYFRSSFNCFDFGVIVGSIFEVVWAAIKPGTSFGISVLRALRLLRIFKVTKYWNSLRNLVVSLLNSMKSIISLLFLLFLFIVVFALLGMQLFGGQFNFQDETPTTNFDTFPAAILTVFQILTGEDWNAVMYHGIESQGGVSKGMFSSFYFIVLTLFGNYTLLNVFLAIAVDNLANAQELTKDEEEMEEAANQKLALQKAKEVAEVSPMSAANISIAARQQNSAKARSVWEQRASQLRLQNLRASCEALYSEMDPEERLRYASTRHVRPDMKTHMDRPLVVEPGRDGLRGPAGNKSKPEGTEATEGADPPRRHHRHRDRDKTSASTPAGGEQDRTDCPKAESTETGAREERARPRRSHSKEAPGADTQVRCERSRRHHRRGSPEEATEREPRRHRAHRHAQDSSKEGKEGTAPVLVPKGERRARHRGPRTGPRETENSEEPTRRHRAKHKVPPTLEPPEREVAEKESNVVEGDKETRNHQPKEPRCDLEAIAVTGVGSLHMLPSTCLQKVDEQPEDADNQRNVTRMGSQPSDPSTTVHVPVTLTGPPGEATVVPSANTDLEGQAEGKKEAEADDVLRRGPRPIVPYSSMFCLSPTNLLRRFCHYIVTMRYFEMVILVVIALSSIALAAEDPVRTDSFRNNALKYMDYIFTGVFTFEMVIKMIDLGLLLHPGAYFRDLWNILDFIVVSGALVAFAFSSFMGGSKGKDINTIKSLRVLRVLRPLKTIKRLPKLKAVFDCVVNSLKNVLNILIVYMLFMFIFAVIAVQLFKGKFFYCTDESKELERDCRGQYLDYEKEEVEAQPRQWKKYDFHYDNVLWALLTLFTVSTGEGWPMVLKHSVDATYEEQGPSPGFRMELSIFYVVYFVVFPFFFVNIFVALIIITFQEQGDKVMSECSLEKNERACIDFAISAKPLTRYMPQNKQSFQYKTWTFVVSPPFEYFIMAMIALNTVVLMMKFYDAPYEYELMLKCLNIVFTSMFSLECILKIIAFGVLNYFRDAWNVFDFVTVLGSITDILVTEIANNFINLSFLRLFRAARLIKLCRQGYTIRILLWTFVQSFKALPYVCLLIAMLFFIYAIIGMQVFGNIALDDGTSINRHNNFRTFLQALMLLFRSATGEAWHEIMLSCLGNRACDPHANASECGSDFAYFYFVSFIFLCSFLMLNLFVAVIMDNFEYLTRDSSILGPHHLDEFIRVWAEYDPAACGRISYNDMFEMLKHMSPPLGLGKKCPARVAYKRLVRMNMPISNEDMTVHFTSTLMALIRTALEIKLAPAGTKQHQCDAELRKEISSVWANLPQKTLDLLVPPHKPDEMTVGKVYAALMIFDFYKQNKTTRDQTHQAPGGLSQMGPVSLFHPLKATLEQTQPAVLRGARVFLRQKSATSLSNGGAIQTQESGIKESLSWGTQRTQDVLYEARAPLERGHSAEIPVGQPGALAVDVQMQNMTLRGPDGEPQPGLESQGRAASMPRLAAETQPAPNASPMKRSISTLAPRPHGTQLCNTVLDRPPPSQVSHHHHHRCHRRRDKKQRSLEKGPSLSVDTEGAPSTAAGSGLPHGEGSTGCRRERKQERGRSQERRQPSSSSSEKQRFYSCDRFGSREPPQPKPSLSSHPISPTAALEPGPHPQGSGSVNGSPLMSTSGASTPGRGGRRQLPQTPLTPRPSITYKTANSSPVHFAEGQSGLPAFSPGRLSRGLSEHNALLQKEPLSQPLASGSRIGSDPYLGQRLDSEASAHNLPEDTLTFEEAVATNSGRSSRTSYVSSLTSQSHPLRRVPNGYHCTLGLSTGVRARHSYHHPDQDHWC
# Sequence (P54290 25-944 partner limits assumed): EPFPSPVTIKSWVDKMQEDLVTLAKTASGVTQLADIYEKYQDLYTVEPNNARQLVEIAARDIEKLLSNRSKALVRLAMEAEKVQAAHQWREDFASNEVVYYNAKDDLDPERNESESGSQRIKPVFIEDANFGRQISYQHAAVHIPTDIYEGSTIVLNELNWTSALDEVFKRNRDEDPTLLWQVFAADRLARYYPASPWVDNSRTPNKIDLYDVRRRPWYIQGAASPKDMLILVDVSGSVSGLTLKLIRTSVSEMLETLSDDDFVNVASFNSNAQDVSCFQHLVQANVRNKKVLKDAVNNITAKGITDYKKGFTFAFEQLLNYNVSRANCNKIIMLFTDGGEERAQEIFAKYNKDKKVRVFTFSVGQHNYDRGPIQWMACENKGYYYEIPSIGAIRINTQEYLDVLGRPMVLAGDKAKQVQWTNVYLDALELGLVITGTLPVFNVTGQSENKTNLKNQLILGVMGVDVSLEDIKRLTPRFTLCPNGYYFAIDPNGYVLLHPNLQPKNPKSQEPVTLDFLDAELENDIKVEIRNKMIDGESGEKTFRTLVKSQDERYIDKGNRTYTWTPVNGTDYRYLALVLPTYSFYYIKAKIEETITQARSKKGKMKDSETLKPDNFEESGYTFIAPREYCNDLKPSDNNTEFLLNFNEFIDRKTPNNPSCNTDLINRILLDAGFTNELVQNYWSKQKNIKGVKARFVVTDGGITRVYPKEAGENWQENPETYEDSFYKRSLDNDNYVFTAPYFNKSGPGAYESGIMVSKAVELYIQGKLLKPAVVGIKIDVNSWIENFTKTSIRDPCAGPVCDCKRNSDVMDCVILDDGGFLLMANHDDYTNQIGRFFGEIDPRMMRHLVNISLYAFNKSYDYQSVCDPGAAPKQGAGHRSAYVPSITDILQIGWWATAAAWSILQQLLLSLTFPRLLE
# Sequence (P54290 945-1091 partner limits assumed): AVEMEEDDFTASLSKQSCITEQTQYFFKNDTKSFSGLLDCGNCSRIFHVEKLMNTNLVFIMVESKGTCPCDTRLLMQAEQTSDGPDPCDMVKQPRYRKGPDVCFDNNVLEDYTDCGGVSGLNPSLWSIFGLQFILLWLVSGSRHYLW
# Sequence (P54283 whole entry partner): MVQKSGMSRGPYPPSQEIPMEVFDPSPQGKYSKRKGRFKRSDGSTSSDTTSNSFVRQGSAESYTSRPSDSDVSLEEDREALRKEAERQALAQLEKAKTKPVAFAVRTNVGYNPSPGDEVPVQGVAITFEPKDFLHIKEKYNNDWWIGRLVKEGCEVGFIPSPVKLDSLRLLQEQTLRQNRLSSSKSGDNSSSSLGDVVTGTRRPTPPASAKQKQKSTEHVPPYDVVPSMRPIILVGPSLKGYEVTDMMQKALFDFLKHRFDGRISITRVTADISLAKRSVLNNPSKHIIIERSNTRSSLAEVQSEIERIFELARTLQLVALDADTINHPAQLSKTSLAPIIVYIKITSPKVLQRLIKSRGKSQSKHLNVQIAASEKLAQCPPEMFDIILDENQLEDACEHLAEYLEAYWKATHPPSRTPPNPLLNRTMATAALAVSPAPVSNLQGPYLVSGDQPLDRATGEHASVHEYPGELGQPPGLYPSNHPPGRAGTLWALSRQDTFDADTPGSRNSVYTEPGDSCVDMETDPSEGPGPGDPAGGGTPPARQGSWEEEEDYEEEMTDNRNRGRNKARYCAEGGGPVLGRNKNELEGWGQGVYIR
# procedure.summary: N-type calcium channel block, whole cell patch clamp in HEK 293 cells
# Assay type: cell-based
# assay.setup: pulse frequency 0.2 Hz (frequency dependent block), holding potential −80 mV to +10 mV, read-out: IC50 @ 0.2 Hz
# Description: N-type calcium channel blocking activity was assayed in human embryonic kidney cells, HEK 293, stably transfected with the rat brain N-type calcium channel subunits (α1B+α2δ+β1b cDNA subunits). […] Whole cell patch clamp experiments were performed using an Axopatch 200B amplifier (Axon Instruments, Burlingame, Calif.) linked to a personal computer equipped with pCLAMP software. […] Data were analyzed using Clampfit (Axon Instruments) and SigmaPlot 4.0 (Jandel Scientific).

{"compound": "COc1ccccc1N1CCN(C(=O)C2CC2C(=O)N2CCN(C(c3ccccc3)c3ccccc3)CC2)CC1 (stereo not shown)", "IC50": "430 nM"}
{"compound": "CC(NC(=O)C1CC1C(=O)N1CCN(C(c2ccccc2)c2ccccc2)CC1)c1ccccc1 (stereo not shown)", "IC50": "970 nM"}
{"compound": "O=C(C1CC1C(=O)N1CCN(C(c2ccccc2)c2ccccc2)CC1)N1CCC(N2CCOCC2)CC1 (stereo not shown)", "IC50": "> 3950 nM"}
{"compound": "O=C(C1CC1C(=O)N1CCN(C(c2ccccc2)c2ccccc2)CC1)N1CCN(c2ccccc2)CC1 (stereo not shown)", "IC50": "310 nM"}

---

Entries and their measured pIC50 follow.
# target: rat brain N-type calcium channel subunits (α1B+α2δ+β1b cDNA subunits) (Rattus norvegicus)
# Construct: expressed in transfected cells; host or cells: HEK 293 (human embryonic kidney), stably transfected; alternatively transiently transfected
# procedure.summary: N-type calcium channel block, whole cell patch clamp in HEK 293 cells
# Type: cell-based
# assay.setup: low frequency stimulation 0.067 Hz (tonic block), holding potential −80 mV to +10 mV, read-out: IC50 @ 0.067 Hz
# Experimental: N-type calcium channel blocking activity was assayed in human embryonic kidney cells, HEK 293, stably transfected with the rat brain N-type calcium channel subunits (α1B+α2δ+β1b cDNA subunits). […] Whole cell patch clamp experiments were performed using an Axopatch 200B amplifier (Axon Instruments, Burlingame, Calif.) linked to a personal computer equipped with pCLAMP software. […] Data were analyzed using Clampfit (Axon Instruments) and SigmaPlot 4.0 (Jandel Scientific).
pIC50: −log10 of the molar value.

{"molecule": "O=C(C1CC1C(=O)N1CCN(C(c2ccccc2)c2ccccc2)CC1)N1CCC(N2CCOCC2)CC1 (stereo not drawn) [Compound 4]", "censoring.sign": "<", "pIC50": 5.23}
{"molecule": "COc1ccccc1N1CCN(C(=O)C2CC2C(=O)N2CCN(C(c3ccccc3)c3ccccc3)CC2)CC1 (stereo not drawn) [Compound 9]", "censoring.sign": "=", "pIC50": 6.20}
{"molecule": "CC(C)N(C(=O)C1CC1C(=O)N1CCN(C(c2ccccc2)c2ccccc2)CC1)C(C)C (stereo not drawn) [Compound 14]", "censoring.sign": "=", "pIC50": 5.81}
{"molecule": "O=C(C1CC1C(=O)N1CCN(C(c2ccccc2)c2ccccc2)CC1)N1CCN(c2ccccc2)CC1 (stereo not drawn) [Compound 2]", "censoring.sign": "=", "pIC50": 6.36}
{"molecule": "CC(C)(C)C1CCC(NC(=O)C2CC2C(=O)N2CCN(C(c3ccccc3)c3ccccc3)CC2)CC1 (stereo not drawn) [Compound 11]", "censoring.sign": "=", "pIC50": 7.05}
{"molecule": "CN1CCN(C(=O)C2CC2C(=O)N2CCN(C(c3ccccc3)c3ccccc3)CC2)CC1 (stereo not drawn) [Compound 3]", "censoring.sign": "=", "pIC50": 5.60}
